Target: yeast proteasome β1/β1' (Saccharomyces cerevisiae)
Assay: Proteasome assay, PGPH activity (fluorogenic substrate Z-Leu-Leu-Glu-βNA)
Type: biochemical
Design: Three of the seven different β-type subunits are processed at the N-terminal nucleophile, the threonine-1 residue; endogenous in cells; host or cells: Saccharomyces cerevisiae
Conditions: Z-Leu-Leu-Glu-βNA 40 µM, inhibitor incubated 1 h at 37°C, Tris-buffer pH 7.5
Where a SMILES comes first, the peptide text is derived from it.
quantity_kind: IC50

[[record]]
compound = "CC(=O)N[C@@H](CCCNC(=N)N)C(=O)N[C@H](C(=O)N[C@H](C=O)CCCNC(=N)N)C(C)C [compound 2, Ac-Arg-Val-Arg-H] (Ac-Arg-Val-Arg-aldehyde)"
test_value = "> 100 µM"

